Where do the numbers come from? From the RNAGym collection of RNA variant scans (doi:10.1021/acssynbio.7b00057).

B1: Pistol ribozyme (parent)
chain: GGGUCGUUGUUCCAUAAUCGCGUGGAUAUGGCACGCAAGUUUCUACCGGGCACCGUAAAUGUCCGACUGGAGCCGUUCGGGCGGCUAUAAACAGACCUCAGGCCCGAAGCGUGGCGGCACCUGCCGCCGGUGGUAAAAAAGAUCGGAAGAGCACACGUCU

variants of: B1; test: aptazyme ON/OFF ratio, guanine; higher = stronger switching; co-transcriptional cleavage with and without guanine
REPORTED PROPERTY: aptazyme ON/OFF ratio

[[record]]
var = "U8A G9C U10G C13U"
reported_measurement = 1.31

[[record]]
var = "G9C U11C C13A"
reported_measurement = 1.06

[[record]]
var = "U8A G9A U11G C12U C13A"
reported_measurement = 1.23

[[record]]
var = "U7C U8G G9A U11G C12U C13A"
reported_measurement = 1.27

[[record]]
var = "U7G U8C U10A U11A C12A C13A"
reported_measurement = 1.13

[[record]]
var = "U8C G9U U10C C12A"
reported_measurement = 1.19

[[record]]
var = "U8G U11A C12G C13U"
reported_measurement = 1.09

[[record]]
var = "U7C G9U U10C C12A"
reported_measurement = 1.1

[[record]]
var = "U7A U8A G9A U10A U11G"
reported_measurement = 1.29

[[record]]
var = "U7G U8A U10C C12U C13A"
reported_measurement = 1.24

[[record]]
var = "U7C G9U U10A U11A C12G C13G"
reported_measurement = 1.19

[[record]]
var = "U7C U8C G9U U11A C12U C13A"
reported_measurement = 1.18

[[record]]
var = "U8G G9U U10C U11A C12A C13G"
reported_measurement = 1.08

[[record]]
var = "U7G U8C G9U U11A C12U C13U"
reported_measurement = 1.41

[[record]]
var = "U8C U10G U11A C13A"
reported_measurement = 1.26

[[record]]
var = "U7C G9U U10A C12U C13G"
reported_measurement = 1.11

[[record]]
var = "U8C G9U U11A"
reported_measurement = 1.35

[[record]]
var = "U7C U8C G9U U10A C12G C13G"
reported_measurement = 1.12

[[record]]
var = "U8G G9A U11G C12A"
reported_measurement = 1.08

[[record]]
var = "U7A U8A G9C U10C U11G C13U"
reported_measurement = 1.05

[[record]]
var = "U7G U8G G9A U10A U11A C12U C13G"
reported_measurement = 1.13

[[record]]
var = "U8C G9A U11A C12G C13G"
reported_measurement = 1.2

